# assay_comment: Exposure (plasma concentration by LC-MS/MS) of NDGA after oral administration in male CD-1 mice at 100 mg/kg
# Format: in vivo
# applied_conditions: male, CD-1, mouse, plasma, po, 100 mg/kg, PO 100 mg/kg, 0.5% NaCMC in DI water, time point 0.50 hr, group average, read-out: Average plasma concentration

| compound | unit_label | concentration at 0.5 h |
| --- | --- | --- |
| CC(Cc1ccc(O)c(O)c1)C(C)Cc1ccc(O)c(O)c1 (stereo not shown) [NDGA, nordihydroguaiaretic acid] | ng/mL | 49.6 |

###

# assay_comment: Exposure (plasma concentration by LC-MS/MS) of NDGA after oral administration in male CD-1 mice at 100 mg/kg
# Assay type: in vivo
# applied_conditions: male, CD-1, mouse, plasma, po, 100 mg/kg, PO 100 mg/kg, 0.5% NaCMC in DI water, time point 4.0 hr, group average, read-out: Average plasma concentration
# Procedure: Test compound was dosed at 100 mg/kg from 0.5% MC and 0.5% NaCMC in DI water in separate groups. Analytical stock solutions (1 mg/mL of the free drug) were prepared in DMSO. Standards were made from independently prepared stock solutions of the test compound. […] All data are expressed as ng/mL of the free drug. Samples that were below the limit of quantitation were not used in the calculation of averages. […]

| compound | concentration at 4 h / ng/mL |
| --- | --- |
| CC(Cc1ccc(O)c(O)c1)C(C)Cc1ccc(O)c(O)c1 (stereo not shown) [NDGA, nordihydroguaiaretic acid] | 2.75 |

###

# assay_comment: Exposure (plasma concentration by LC-MS/MS) of NDGA after oral administration in male CD-1 mice at 100 mg/kg
# Format: in vivo
# applied_conditions: male, CD-1, mouse, plasma, po, 100 mg/kg, PO 100 mg/kg, 0.5% NaCMC in DI water, time point 4.0 hr, individual mice #183-186, read-out: Individual plasma concentration Conc.
quantity_name: concentration at 4 h (ng/mL)

| compound | unit_label | assay_value |
| --- | --- | --- |
| CC(Cc1ccc(O)c(O)c1)C(C)Cc1ccc(O)c(O)c1 (stereo not shown) [NDGA, nordihydroguaiaretic acid] | ng/mL | 3.24 |

###

# assay_comment: Exposure (plasma concentration by LC-MS/MS) of NDGA after oral administration in male CD-1 mice at 100 mg/kg
# Type: in vivo
# applied_conditions: male, CD-1, mouse, plasma, po, 100 mg/kg, PO 100 mg/kg, 0.5% NaCMC in DI water, time point 0.50 hr, individual mice #183-187, read-out: Individual plasma concentration Conc.

| molecule | unit_label | concentration at 0.5 h |
| --- | --- | --- |
| CC(Cc1ccc(O)c(O)c1)C(C)Cc1ccc(O)c(O)c1 (stereo not shown) [NDGA, nordihydroguaiaretic acid] | ng/mL | 40.9 |

###

# assay_comment: Exposure (plasma concentration by LC-MS/MS) of NDGA after oral administration in male CD-1 mice at 100 mg/kg
# Assay type: in vivo
# applied_conditions: male, CD-1, mouse, plasma, po, 100 mg/kg, PO 100 mg/kg, 0.5% MC in DI water, time point 0.167 hr, group average

| compound | concentration at 0.167 h |
| --- | --- |
| CC(Cc1ccc(O)c(O)c1)C(C)Cc1ccc(O)c(O)c1 (stereo not shown) [NDGA, nordihydroguaiaretic acid] | 43.4 ng/mL |

All figures here come from patent US9834575B2.
